These entries and their values trace back to ChEMBL document CHEMBL5120892.

Test system: BT-549
assay.remarks: Antiproliferative activity against human BT-549 cells measured after 72 hrs by SRB assay
Assay type: functional
As shown below, each of these molecules has a reported GI50 value.
measured.property: GI50 (µM)

molecule="CC1(C)CCC2=C(O1)c1ccccc1C(=O)C2=O [LAPACHONE]" output_unit=µM value_prefix== value_measured=11.4
molecule=COc1ccc2c(c1)C(=O)C=CC2=O output_unit=µM value_prefix== value_measured=34
molecule=CC1=CC(=O)c2c(O)cc(C)c(C(=O)C(Cl)Cl)c2C1=O output_unit=µM value_prefix== value_measured=8.5
molecule="O=C1C=CC(=O)c2c(O)ccc(O)c21 [NAPHTHAZALIN]" output_unit=µM value_prefix== value_measured=0.43
molecule=CC1=CC(=O)c2cccc(O)c2C1=O output_unit=µM value_prefix== value_measured=2.7
molecule=CC1=C(Br)C(=O)c2ccccc2C1=O output_unit=µM value_prefix== value_measured=4.9
molecule=O=C1c2ccccc2C(=O)c2c(O)c(CCl)cc(O)c21 output_unit=µM value_prefix== value_measured=0.4
molecule=COC(=O)/C=C(/CC1=C(CCC(=O)CC2(C)OCCO2)C(=O)c2ccccc2C1=O)OC output_unit=µM value_prefix== value_measured=24
molecule=O=C1C=C(Cl)C(=O)c2c(O)cccc21 output_unit=µM value_prefix== value_measured=9.3
molecule=CC=CCC1=C(O)C(=O)c2ccccc2C1=O output_unit=µM value_prefix== value_measured=47
molecule="O=C1C=CC(=O)c2c(O)cccc21 [JUGLONE]" output_unit=µM value_prefix=> value_measured=100
